The reported measurements were obtained from ChEMBL document CHEMBL4219273.

- measurement.notes: Cmax in C57BL/6 mouse at 2.5 mg/kg, po
- Assay type: ADME, organism-based
- Parameters: dose 2.5 mg/kg, route oral
- condition.details: in vivo
measurement.name: Cmax (ng/mL)
Give the value in ng/mL but do not write ng/mL after it.

Item under review: "CCOc1nc2ccc(Oc3ccc(/C=C/[C@H](C)NC(C)=O)cn3)c(Cl)c2s1" . Reported Cmax?
4230

====

- measurement.notes: Metabolic stability in human liver microsomes assessed as parent compound remaining after 30 mins
- Type: ADME, microsome
- condition.details: read-out: Stability
measurement.name: remaining at 0.5 h (%)

{"smiles.str": "CC(=O)N[C@@H](C)/C=C/c1ccc(Oc2cc3sc(C)nc3cc2Cl)nc1", "measurement.name": "remaining at 0.5 h", "endpoint.result": 94}
{"smiles.str": "CC(=O)N[C@@H](C)/C=C/c1ccc(Oc2ccc3nc(C(C)C)sc3c2C(F)(F)F)nc1", "measurement.name": "remaining at 0.5 h", "endpoint.result": 87}
{"smiles.str": "CCOc1nc2ccc(Oc3ccc(/C=C/[C@H](C)NC(C)=O)cn3)c(Cl)c2s1", "measurement.name": "remaining at 0.5 h", "endpoint.result": 91}
{"smiles.str": "CC(=O)N[C@@H](C)/C=C/c1ccc(Oc2ccc3nc(C(C)(C)O)sc3c2Cl)nc1", "measurement.name": "remaining at 0.5 h", "endpoint.result": 92}
{"smiles.str": "CC(=O)N[C@@H](C)/C=C/c1ccc(Oc2ccc3sc(C(C)C)nc3c2Cl)nc1", "measurement.name": "remaining at 0.5 h", "endpoint.result": 88}
{"smiles.str": "CC(=O)N[C@@H](C)/C=C/c1ccc(Oc2ccc3nc(C(C)C)sc3c2F)nc1", "measurement.name": "remaining at 0.5 h", "endpoint.result": 84}
{"smiles.str": "CC(=O)N[C@@H](C)/C=C/c1ccc(Oc2ccc3nc(C)sc3c2Cl)nc1", "measurement.name": "remaining at 0.5 h", "endpoint.result": 87}
{"smiles.str": "CC(=O)N[C@@H](C)/C=C/c1ccc(Oc2ccc3nc(C(C)C)sc3c2Cl)nc1", "measurement.name": "remaining at 0.5 h", "endpoint.result": 83}
